- System Under Test: RBM10 RRM1-ZnF-RRM2 (Homo sapiens)
- Sequence: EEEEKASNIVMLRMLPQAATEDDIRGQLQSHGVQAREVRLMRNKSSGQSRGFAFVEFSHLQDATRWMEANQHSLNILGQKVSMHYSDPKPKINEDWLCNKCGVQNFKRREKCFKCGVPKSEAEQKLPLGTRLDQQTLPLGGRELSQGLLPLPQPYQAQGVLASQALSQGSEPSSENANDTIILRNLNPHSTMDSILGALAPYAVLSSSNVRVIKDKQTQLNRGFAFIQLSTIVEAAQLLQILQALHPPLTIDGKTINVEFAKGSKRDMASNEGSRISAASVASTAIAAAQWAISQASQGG
- Assay Notes: pulldown
- Test Settings: 20 nM protein; 20 mM Hepes pH 7.8, 80 mM KCl, 20 mM NaCl, 10% glycerol, 2 mM DTT; 4 C
Metric Name: binding signal (RNAcompete z-score)
Answers are plain numbers.

Examples from the recorded data:
Monomer Sequence	System Under Test	binding signal (RNAcompete z-score)
GGAUGGG [7-mer GGAUGGG]	RBM10 RRM1-ZnF-RRM2 (Homo sapiens)	4.83
AGGGAAA [7-mer AGGGAAA]	RBM10 RRM1-ZnF-RRM2 (Homo sapiens)	4.87
GGUAAGG [7-mer GGUAAGG]	RBM10 RRM1-ZnF-RRM2 (Homo sapiens)	4.92
AGUAGGG [7-mer AGUAGGG]	RBM10 RRM1-ZnF-RRM2 (Homo sapiens)	4.88
GAAAGGA [7-mer GAAAGGA]	RBM10 RRM1-ZnF-RRM2 (Homo sapiens)	5.67

Please give binding signal (RNAcompete z-score), item by item, for the list that follows.
1. GGAAGGG [7-mer GGAAGGG]
2. AAGGGUG [7-mer AAGGGUG]
3. GAAAUGG [7-mer GAAAUGG]
4. GGGAUGG [7-mer GGGAUGG]
5. GAAGGGG [7-mer GAAGGGG]
6. GGGAAGG [7-mer GGGAAGG]
7. GAAAGGG [7-mer GAAAGGG]
8. GGAAAGG [7-mer GGAAAGG]

Out:
1: 5.56; 2: 5.29; 3: 4.79; 4: 5.12; 5: 4.83; 6: 5.54; 7: 5.54; 8: 6.43

Please give binding signal (RNAcompete z-score), item by item, for the list that follows.
1. GGUAGGG [7-mer GGUAGGG]
2. GAGUGGG [7-mer GAGUGGG]

Out:
1. 4.79
2. 4.9
